Molecular target: Equine serum BChE (Equus caballus)
Construct: Equine serum BChE, (%); purchased Sigma-Aldrich; host or cells: equine serum
Sequence (P81908 whole entry): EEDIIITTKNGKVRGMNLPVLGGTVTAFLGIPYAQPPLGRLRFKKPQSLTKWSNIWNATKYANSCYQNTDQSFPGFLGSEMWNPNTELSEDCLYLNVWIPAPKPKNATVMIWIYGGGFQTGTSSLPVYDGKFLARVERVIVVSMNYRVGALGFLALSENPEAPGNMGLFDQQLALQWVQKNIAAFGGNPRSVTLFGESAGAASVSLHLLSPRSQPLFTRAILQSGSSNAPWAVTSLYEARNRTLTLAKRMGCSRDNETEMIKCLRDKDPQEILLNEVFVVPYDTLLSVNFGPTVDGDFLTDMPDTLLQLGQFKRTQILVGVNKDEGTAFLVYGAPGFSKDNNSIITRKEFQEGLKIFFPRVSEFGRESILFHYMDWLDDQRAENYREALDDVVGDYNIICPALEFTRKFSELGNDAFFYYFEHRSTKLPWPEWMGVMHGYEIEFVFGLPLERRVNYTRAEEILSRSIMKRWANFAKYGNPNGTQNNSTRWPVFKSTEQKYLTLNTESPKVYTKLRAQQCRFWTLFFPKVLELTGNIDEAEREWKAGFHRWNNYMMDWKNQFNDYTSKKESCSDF
Assay: In vitro inhibition of BChE activity (spectrophotometric, BTCh iodide substrate)
Format: biochemical
Conditions: read-out: Equine serum BChE, (%) inhibition
Outcome: yes (1) for inhibition at 20 µM of at least 30%; no (0) for anything lower.

1) O=P(CCc1ccccc1)(CCc1ccccc1)c1c2ccccc2nc2ccccc12: no (0)
2) O=P(Oc1ccccc1)(Oc1ccccc1)c1c2ccccc2nc2ccccc12: yes (1)
3) CCOP(=O)(OCC)c1c2ccccc2nc2ccccc12: no (0)
4) CCOP(=O)(OCC)C1c2ccccc2Nc2ccccc21: no (0)
5) O=P(CCc1ccc(Cl)cc1)(CCc1ccc(Cl)cc1)c1c2ccccc2nc2ccccc12: no (0)
